# system: human FLAP (Homo sapiens (Human), UniProt P20292)
# Sequence (P20292 whole entry): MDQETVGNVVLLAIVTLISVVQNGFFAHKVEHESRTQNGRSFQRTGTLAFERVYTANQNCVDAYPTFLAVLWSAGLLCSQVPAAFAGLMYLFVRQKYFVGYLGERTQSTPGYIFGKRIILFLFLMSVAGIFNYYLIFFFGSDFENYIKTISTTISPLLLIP
# assayNotes: FLAP binding assay (HTRF format)
# conditionInfo: wild type FLAP, HTRF format
pKi: −log10 of the molar value. Where a name gives a salt, the structure may show the parent alone.
parameterMeasured: pKi

Please review the entries below; each comes with its answer.
[
  {
    "compound": "N#Cc1cccnc1Oc1ccccc1-c1ccc(-c2cnc(N)cn2)c(F)c1",
    "pKi": 8.22
  },
  {
    "compound": "COCCCS(=O)(=O)c1ncccc1-c1ccc(-c2cnc(N)nc2)c(F)c1",
    "pKi": 6.33
  },
  {
    "compound": "N#Cc1cccc(Oc2ccccc2-c2ccc(-c3cnc(N)cn3)c(F)c2)n1",
    "pKi": 8.47
  },
  {
    "compound": "CC(C)(C)NS(=O)(=O)c1ccccc1-c1ccc(-c2ncc3cc[nH]c3n2)c(F)c1",
    "pKi": 5.90
  },
  {
    "compound": "Nc1ncc(-c2ccc(-c3cccnc3S(=O)(=O)C3CCC3)cc2F)cn1 [Example 805, hydrochloride]",
    "pKi": 7.53
  }
]

P. CC(O)C1CN(C(=O)c2ccccc2-c2ccc(-c3cnc(N)cn3)c(F)c2)CCO1 (mixture of isomers)
Q. CC(C)Oc1ccccc1-c1ccc(-c2cnc(N)cn2)c(F)c1
Prompt line: Compare pKi: is it lower for P or for Q ? Please identify the chosen entry by its label.
Response line: P
(P: 6.25, Q: 7.27)

a. CC(C)(C)NS(=O)(=O)c1ccccc1-c1ccc(-c2cnc(N)c(N)c2)c(F)c1
b. Nc1cnc(-c2ccc(-c3ccc(C(F)(F)F)cc3CN3CCC(N)CC3)cc2F)cn1
c. CC(C)(C)NS(=O)(=O)c1ccccc1-c1ccc(-c2ccc(N)nc2C#N)c(F)c1
Prompt line: Rank the 3 compounds: largest pKi first, smallest last. Your task in answering is to list the labels in the requested order.
Response line: a, c, b
